Answer each item with its documented kmet (first order rate constant for metabolism).
- Tested on: anoxic HT29 cell suspensions
- protocol summary: Rate constant for metabolic consumption kmet in anoxic single cell suspensions
- Type: in vitro ADME
- run conditions: scaled to the cell density in MCLs
One number for each entry, in min⁻¹.

Example compounds with recorded kmet (first order rate constant for metabolism):
>  <input smiles>
[O-][n+]1nc(NCCCN2CCOCC2)[n+]([O-])c2cc3c(cc21)CCO3

>  <test target>
anoxic HT29 cell suspensions

>  <experimental result>
0.23

$$$$
>  <input smiles>
CN(C)CCNc1n[n+]([O-])c2cc3c(cc2[n+]1[O-])CCCCC3

>  <test target>
anoxic HT29 cell suspensions

>  <experimental result>
1.52

$$$$
>  <input smiles>
[O-][n+]1nc(NCCCN2CCOCC2)[n+]([O-])c2cc3c(cc21)OCC3

>  <test target>
anoxic HT29 cell suspensions

>  <experimental result>
0.20

$$$$
>  <input smiles>
CN(C)CCNc1n[n+]([O-])c2cc3c(cc2[n+]1[O-])OCC3

>  <test target>
anoxic HT29 cell suspensions

>  <experimental result>
0.60

$$$$

Consider the additional compound presented here.
Q: Endpoint output: kmet (first order rate constant for metabolism) of [O-][n+]1nc(NCCCN2CCOCC2)[n+]([O-])c2cc3c(cc21)CCCC3 . Value?
A: 0.69

---

- Tested on: anoxic HT29 cell suspensions
- protocol summary: Rate constant for metabolic consumption kmet in anoxic single cell suspensions
- Format: in vitro ADME
- run conditions: scaled to the cell density in MCLs
Classification field: yes (1) = kmet (first order rate constant for metabolism) at or over 0.6 min⁻¹; no (0) = kmet (first order rate constant for metabolism) under 0.6 min⁻¹.

>  <compound>
CCc1n[n+]([O-])c2cc3c(cc2[n+]1[O-])CC(CN1CCOCC1)C3 (centres unmarked)

>  <assigned label>
no (0)

$$$$
>  <compound>
CCCN(CCC)CCNc1n[n+]([O-])c2cc3c(cc2[n+]1[O-])CCC3

>  <assigned label>
yes (1)

$$$$
>  <compound>
CC1Cc2cc3c(cc2C1)[n+]([O-])c(NCCCN1CCOCC1)n[n+]3[O-] (centres unmarked)

>  <assigned label>
no (0)

$$$$

Now consider the entry below.
Q: For this compound, is measured kmet (first order rate constant for metabolism) 0.6 min⁻¹ or higher? [O-][n+]1nc(NCCN2CCCCC2)[n+]([O-])c2ccc3c(c21)CCC3
A: yes (1)

---

- protocol summary: One electron reduction potential E
- Type: physicochemical
- run conditions: anaerobic aqueous solution, pH 7.0, pulse radiolysis
Answer each item with its documented E(1).
Respond with the figure and its unit, in that order.

>  <compound>
CCc1n[n+]([O-])c2cc3c(cc2[n+]1[O-])CN(C)CC3

>  <experimental endpoint>
E(1)

>  <experimental result>
−344 mV

$$$$
>  <compound>
CN(C)CCNc1n[n+]([O-])c2cc3c(cc2[n+]1[O-])CCCCC3

>  <experimental endpoint>
E(1)

>  <experimental result>
−488 mV

$$$$
>  <compound>
CCc1n[n+]([O-])c2cc3c(cc2[n+]1[O-])CC(CCN1CCOCC1)C3 (stereo not drawn)

>  <experimental endpoint>
E(1)

>  <experimental result>
−431 mV

$$$$
>  <compound>
[O-][n+]1nc(CCCN2CCOCC2)[n+]([O-])c2cc3c(cc21)CCO3

>  <experimental endpoint>
E(1)

>  <experimental result>
−468 mV

$$$$
>  <compound>
CCc1n[n+]([O-])c2cc3c(cc2[n+]1[O-])CC(CO)C3 (stereo not drawn)

>  <experimental endpoint>
E(1)

>  <experimental result>
−452 mV

$$$$

Okay, here is my list. What is E(1) for each of these?
1. CCN1Cc2cc3c(cc2C1)[n+]([O-])c(N)n[n+]3[O-]
2. CN(C)CCNc1n[n+]([O-])c2cc3c(cc2[n+]1[O-])CCC3
3. [O-][n+]1nc(CCCN2CCOCC2)[n+]([O-])c2cc3c(cc21)CC(CO)C3 (stereo not drawn)

A:
1: −390 mV; 2: −486 mV; 3: −408 mV

Q: Endpoint output: E(1) of [O-][n+]1nc(NCCCN2CCOCC2)[n+]([O-])c2ccc3c(c21)CCC3 . Value?
A: −510 mV
